Test system: MS2 coat protein
Assay: apparent Kd, MS2 coat protein; higher = weaker binding; RNA-MaP array
Conditions: designed as: OFF switch for flavin mononucleotide; no ligand
VALUE TYPE: apparent Kd (µM)
Lab book: enter the figure in µM, no units written.

Use these answered entries as a reference point.
>>> df
                                biosequence  assay_result
0  CCAUUGUCAGGAUAUUGUGGUUUAGCGUCGAAAGGGCUUAGCAAGAAGGGACAUGAGGAUCACCCAUGUGUAGU        0.0338
1  UAUUGCAAUGUGAGGAUAUCUCAAGAAAAGACAAGAGAGAAGGCACAUGAGGAUCACCCAUGUUAGAAACAAAA        0.0193
2  ACAGAAAAUAGAGGAUAUACAAGAACAUGAGGAUCACCCAUGUAAUAACAAUAUGAUCGGUUCAAGAAGAAGGCUAAACAAAAU        0.0142
3  CGCUAACAUGAGGAUCACCCAUGUGAGGAUAUUCGCGGCGGACCGGGCUUUGGCGCUCGAAGAAGGCACAACGG        0.0128

What apparent Kd value was documented for this sequence, "UAUGUACAUGAGGAUCACCCAUGUCAGGAUAUCUUCGAUUAGACCAUUAGCGCCGCGGAGAGAAGGGACGUAGA" ?
0.016

Look up apparent Kd: "UCAUGCUGAGGAUAUACAUGAGGAUCACCCAUGUACAGAAUAAGGGAGUGCCAUCAAAGUAGAAGGCAGGACGU"
0.0144

Fill in the blank: the reported apparent Kd of "CUCGGCGCCCAAGGAUAUAGUGGAGGUAAGAAACUAGAAGGUGGUGUGCUAACAUGUUGUCCUUUACAUGAGGAUCACCCAUGU" is ____.
0.0386

Bench note: what apparent Kd did "UAACCAUGCAAAGGAUAUCCAAUACUAUGAGACGGAGAAGGUAGAAACAUGGAGAAUUCCUACAUGAGGAUCACCCAUGUUAGA" show?
0.387

Suppose we examine the sequence "CCUCGUGGACAGGAUAUACACUCGUAUGAUCAUGUAGAAGGGUCCACAUGAGGAUCACCCAUGUUGACAGCCGU" ; what apparent Kd value has been reported?
0.0605

State the recorded apparent Kd for this entry: "GCAGGAAAGCAGAAGGACACCACAUGAGGAUCACCCAUGUCGGCGCUGACUUUGAUCUUGAGGAUGUAGGAUAUGCGUUUCGGA"
0.00876

Given the entry "CUAUACGUAACAUGAGGAUCACCCAUGUUCAGGUGACCAGGAAGAAGGGCUAGCAGAGUAGUUCAGCAGGAUAUUCGAUUAGAC" , report its measured apparent Kd.
0.0386

Given "UCAGAUGUGAAGGAUAUUCCGCGAGCAGCUACGGAAGAAGGUCAAACAUGAGGAUCACCCAUGUGUCUCCCGGG" , state its recorded apparent Kd.
0.0144

Could you tell me which apparent Kd is on file for "GUGAGACAUGAGGAUCACCCAUGUUAGGAUAUAAAAGGCAAACGUAAUGGCGAGGUUAAUAGAAGGAACAGAAA" ?
0.0156

# apparent Kd lookup, item "AUAUAAACGCAGAAGGAUCGUUUCCUUUAAAUGAUAGGAUAUGCCAACCUUGACAUGAGGAUCACCCAUGUGUUACUCUGUUUU"
0.113

Which measured apparent Kd value corresponds to "ACAAACUCAGGAUAUAACGGUGGACACAUGAGGAUCACCCAUGUAAUCCGUGUGACUUAUUUAGAAGGGAGGCGAU" ?
0.00835
